tested on: MS2 coat protein; experiment: apparent KD of MS2 coat protein, switch ON state; designed switch direction (-1 OFF switch, 1 ON switch): 1; higher = weaker reporter binding; details: FMN input: 0 or 200 uM; Eterna round: R93 (includes R88 designs)
We'd kindly ask you to apply these apparent KD of MS2 coat protein classes: interval 1: < 30 nM; interval 2: ≥ 30 nM and < 60 nM; interval 3: ≥ 60 nM

Examples from the recorded data:
Item sequence	Assigned class
AAAAAACAUGAGGAUCACCCAUGUCAAAAGACAUGAGGAUAUGUGUGGAAACCAUACUAUACAGAAGGCAUAAAAA [SS1 - 1008]	interval 3
GGAAAUAAAAGAGAGGAUAUCCAAAGGAAAACAUGAGGAUCACCCAUGUAAAAGGAAGGAAACUGGGAGAAGGCUCAAAAUAAGG [salish99-ss2-010]	interval 1
UGGAGACAUGAGGAUCACCCAUGUGAGAAGAGGCGAGGAUAUCGAAAGAAAGAAGAGAAACGAGAAGGCGCGAGGC [salish99-SS1-047]	interval 2

Continue with the next sequence.
## Task Category of UAGGGAACAGGGUAGGAUAUGCAUGGUCGUACAUGAGGAUCACCCAUGUAGCCUAGAAAAUAAAUGCAGAAGGGCCAAAAGAAAA [Raritea] :
## Result interval 2

* * *

system: MS2 coat protein; assay: apparent KD of MS2 coat protein; designed switch direction (-1 OFF switch, 1 ON switch): 1; higher = weaker reporter binding; settings: input ligand: microRNA oligo, concentration not stated
Property label: apparent KD of MS2 coat protein (nM)
Number in nM, nothing else.

Item sequence	Measurement unit	Observed measurement
AGGCUCAGACGAGGAUAUAUGUAAUAACAUGAGGAUCACCCAUGUGUCGAGCUUCGGCUCGACACAUAGAAGGCGUCUGAGCCA [SSNG2/2-A1] (Eterna round: R96, puzzle: Same State NG 2)	nM	17.4
AUAAACAGGCUAGGAUAUCCGGAAACUACAGGGCACGACCCUGUGGACAUGAGGAUCACCCAUGUGGAGAAGGAGCCACAUGAA [Edlatibi] (Eterna round: R96, puzzle: Same State NG 2)	nM	108

Shift focus to the following entry.
## Task Consider the sequence GCCGCGUUUCGCGCCUACAUGAGGAUCACCCAUGUUUGUAGGCAGGAUAUCGUUUGCUUUGCAAGCGAGAAGGGCUGUUGUGGC [salish99_SSNG3_R04_015] (Eterna round: R96, puzzle: Same State NG 3) and give its recorded apparent KD of MS2 coat protein.
## Result 39.2

* * *

system: MS2 coat protein; assay: apparent KD of MS2 coat protein; designed switch direction (-1 OFF switch, 1 ON switch): 1; higher = weaker reporter binding; details: Eterna round: R95; input ligand: none
# reported apparent KD of MS2 coat protein; entries follow
All answers are understood in nM, so give the number only.

## Task Indicate its recorded apparent KD of MS2 coat protein; the sequence in question is GCCGCACAUGAGGAUCACCCAUGUAAUUACAUGGGAGGAUAUCAGUGCUCGAAAGAGCACUGAGAAGGCCUGAGGC [SS1 - Omei A v1] (puzzle: Same State 1)
## Result 28.8

## Task Identify measured apparent KD of MS2 coat protein associated with UCUUGGUUUUUGCUCGUUUUUUGUGUUGAACAUGAGGAUCACCCAUGUAUUGUACGGUCCAAUUUGGUAAUGGUCCG [JMF 29] (puzzle: Sensor for hsa-mir-208a)
## Result 26.8

## Task Please report apparent KD of MS2 coat protein for the following sequence: CGUCCAGCCUGAGCUGGACAAAAGCAUGUACAUGAGGAUCACCCAUGUUCAUGUACAAGCUUUUUGCUCGUCUUACU [salish99_208a_r3_092x] (puzzle: Sensor for hsa-mir-208a)
## Result 793

## Task Please give measured apparent KD of MS2 coat protein of the following entry: UGUAAACAUGAGGAUCACCCAUGUAAUAUAAUGGGAGGAUAUCUGAAUUAAUUAAAUUAAGGAGAAGGCCUAAUGG [Mat - Same State 1 - Mod of Eli - D48] (puzzle: Same State 1)
## Result 563

## Task Answer with the recorded apparent KD of MS2 coat protein of AGUCCUGAAUAAAUUAAACAGAGACAUGUACAUGAGGAUCACCCAUGUCAUGUGCAAGUUUUUUGCUCGUCAUAUAA [Sensorship 17 - Jieux - Sensor for hsa-mir-208a] (puzzle: Sensor for hsa-mir-208a) only.
## Result 14.9
